Entries and their Average EC50, pSTAT5 assay in pan T cells, MMP2 cleaved molecule values follow.
- Measured On: T1, IL-2 receptor βγ complex on pan T cells (human, UniProt P14784 27-551; P31785 23-369)
- T1 sequence (looked up) 1: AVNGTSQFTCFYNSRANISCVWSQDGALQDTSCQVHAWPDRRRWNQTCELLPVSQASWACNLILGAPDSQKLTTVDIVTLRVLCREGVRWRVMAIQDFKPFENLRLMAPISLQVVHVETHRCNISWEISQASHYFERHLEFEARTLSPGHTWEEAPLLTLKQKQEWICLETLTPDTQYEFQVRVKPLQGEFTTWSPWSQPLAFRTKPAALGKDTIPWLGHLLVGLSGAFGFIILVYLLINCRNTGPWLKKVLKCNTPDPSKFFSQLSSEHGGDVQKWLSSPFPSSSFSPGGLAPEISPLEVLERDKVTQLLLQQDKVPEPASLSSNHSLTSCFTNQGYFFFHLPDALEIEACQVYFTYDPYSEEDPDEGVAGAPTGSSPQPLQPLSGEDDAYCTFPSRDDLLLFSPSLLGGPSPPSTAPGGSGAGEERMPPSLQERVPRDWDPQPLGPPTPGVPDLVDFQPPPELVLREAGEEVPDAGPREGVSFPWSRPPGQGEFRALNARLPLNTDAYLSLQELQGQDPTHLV
- T1 sequence (looked up) 2: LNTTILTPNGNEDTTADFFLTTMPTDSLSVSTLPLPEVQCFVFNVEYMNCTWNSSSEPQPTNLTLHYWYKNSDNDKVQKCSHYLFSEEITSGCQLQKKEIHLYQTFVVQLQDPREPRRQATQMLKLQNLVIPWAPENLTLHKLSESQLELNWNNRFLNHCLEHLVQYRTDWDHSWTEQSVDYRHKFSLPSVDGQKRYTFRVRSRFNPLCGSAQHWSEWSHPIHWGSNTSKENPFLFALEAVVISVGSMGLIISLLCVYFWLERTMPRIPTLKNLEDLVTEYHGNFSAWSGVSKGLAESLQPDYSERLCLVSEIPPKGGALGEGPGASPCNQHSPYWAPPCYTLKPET
- Assay Text: cell-based or functional assay
Primed or numbered codes have the meaning given here. [ ]: non-standard residue; d: D form. Ygp″ = O-(PEG8-amino)-tyrosine (O-(8x polyethylene glycol-amino)-tyrosine); Yn3″ = O-(PEG9-azido)-tyrosine (O-(9x polyethylene glycol-azido)-tyrosine); Ygp = O-(8x polyethylene glycol-amino)-tyrosine; Yn3 = O-(9x polyethylene glycol-azido)-tyrosine; hSer = N[C@@H](CCO)C(=O)O; Nle = CCCC[C@H](N)C(=O)O
Assay Readout: Average EC50, pSTAT5 assay in pan T cells, MMP2 cleaved molecule (nM)

Binder	Numeric Value
CMP-118, MMP2 cleaved (ligand, ends and bridges not checked; also: Lys23 side chain attached to cleavable peptide, MMP2-cleaved, remnant stays attached, cut site not given here) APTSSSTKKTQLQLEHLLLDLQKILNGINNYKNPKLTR[Nle]L[hSer][Yn3″]KF[Ygp″][Nle]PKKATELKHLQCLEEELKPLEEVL[hSer]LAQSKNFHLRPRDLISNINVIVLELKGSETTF[hSer]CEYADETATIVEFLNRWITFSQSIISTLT	0.9
CMP-146, MMP2 cleaved (ligand, not fully specified (residue 11); ends and bridges not checked; also: MMP2-cut remnant of cleavable moiety on Lys11 side chain, not given here) APTSSSTKKTKLQLEHLLLDLQ[Nle]ILNGINNYKNPKLTR[Nle]L[hSer][Yn3]KF[Ygp][Nle]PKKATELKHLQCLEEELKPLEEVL[hSer]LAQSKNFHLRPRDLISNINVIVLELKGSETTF[hSer]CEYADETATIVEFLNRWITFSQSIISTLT	0.92
